Origin of the recorded values: patent US6127340A

Molecular target: elastase
Assay: Inhibition constant (Ki) against elastase
Type: biochemical
Settings: Table 6, comparative with prior art compounds; unit inferred; read-out: Ki(elastase)
MEASUREMENT KIND: Ki

Tell me reported Ki for CC(C)C(NC(=O)C1CCCN1C(=O)C(NC(=O)OCc1ccccc1)C(c1ccccc1)c1ccccc1)B1OC(C)(C)C(C)(C)O1 [Z-D-Dpa-Pro-BoroVal-OPin, reference compound] , tested with elastase. > 70.8 µM
